- target-desc: CYP2D6 (Homo sapiens (Human))
- Sequence (P10635 whole entry): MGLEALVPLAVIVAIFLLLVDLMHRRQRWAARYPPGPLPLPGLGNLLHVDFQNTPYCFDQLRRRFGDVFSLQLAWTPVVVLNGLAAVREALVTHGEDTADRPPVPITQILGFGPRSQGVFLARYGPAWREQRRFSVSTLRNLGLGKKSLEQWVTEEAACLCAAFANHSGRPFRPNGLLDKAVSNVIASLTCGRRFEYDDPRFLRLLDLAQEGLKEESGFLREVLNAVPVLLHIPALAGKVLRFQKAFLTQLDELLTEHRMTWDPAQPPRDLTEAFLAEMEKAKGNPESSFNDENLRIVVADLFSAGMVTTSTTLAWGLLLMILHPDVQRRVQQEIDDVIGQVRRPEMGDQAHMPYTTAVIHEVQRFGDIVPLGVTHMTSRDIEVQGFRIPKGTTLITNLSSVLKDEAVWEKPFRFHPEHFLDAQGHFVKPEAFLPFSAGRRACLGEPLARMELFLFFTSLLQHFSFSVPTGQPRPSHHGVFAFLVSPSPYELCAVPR
- method-notes: P450 inhibition assay CYP2D6
- Assay type: biochemical
- experimental-setup: read-out: IC50 (mean ± SD) [μM] CYP2D6
As shown below, each of these molecules has a reported IC50 value.
API: value field is a number in µM; no unit string.

Lab note: molecule "COc1ccc(-c2c(O)ccc3cc(-c4cccc(O)c4)ccc23)cn1" tested on CYP2D6 (Homo sapiens (Human)); recorded IC50 was 40

Entry "Oc1cccc(-c2ccc3c(-c4cccnc4)c(O)ccc3c2)c1" , tested on CYP2D6 (Homo sapiens (Human)), has a reported IC50 of 22.9

IC50 for CYP2D6 (Homo sapiens (Human)) with input Oc1cccc(-c2ccc3cc(O)ccc3c2)c1 [Compound 19, 6-(3-Hydroxyphenyl)-2-naphthol] equals 32.6

###

The following compounds are listed with their measured inhibition at 1 µM values.
- target-desc: 17β-HSD1 (Homo sapiens (Human), UniProt P14061)
- Sequence (P14061 whole entry): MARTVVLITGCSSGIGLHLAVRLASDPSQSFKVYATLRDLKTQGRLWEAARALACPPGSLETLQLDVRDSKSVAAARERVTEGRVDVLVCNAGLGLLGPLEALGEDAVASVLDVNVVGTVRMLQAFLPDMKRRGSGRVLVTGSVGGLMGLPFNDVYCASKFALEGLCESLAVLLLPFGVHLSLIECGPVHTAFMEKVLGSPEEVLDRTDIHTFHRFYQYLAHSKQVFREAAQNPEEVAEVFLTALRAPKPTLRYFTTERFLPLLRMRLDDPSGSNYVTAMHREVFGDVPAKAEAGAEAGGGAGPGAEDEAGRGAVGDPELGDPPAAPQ
- method-notes: 17β-HSD1 test assay (recombinant protein from Sf9 insect cells, 3H-estrone/NADPH)
- Assay type: biochemical
- experimental-setup: read-out: HSD 1 μM (% inhibition of HSD1); inhibitor 1 μM
Answer format: numeric, % implied, no suffix.

{"compound": "Oc1cccc(-c2ccc3cc(O)ccc3c2)c1 [Compound 19, 6-(3-Hydroxyphenyl)-2-naphthol]", "target-desc": "17β-HSD1 (Homo sapiens (Human), UniProt P14061)", "result": 94}
{"compound": "O=C(Nc1nccs1)c1c(O)ccc2cc(-c3cccc(O)c3)ccc12", "target-desc": "17β-HSD1 (Homo sapiens (Human), UniProt P14061)", "result": 53}

Record "O=C(Nc1ccccc1)c1cc2cc(-c3cccc(O)c3)ccc2cc1O" has 17β-HSD1 (Homo sapiens (Human), UniProt P14061) inhibition at 1 µM equal to 62

###

- method-notes: In vivo pharmacokinetics (rat), cassette dosing method
- experimental-setup: cassette dosing perorally 10 mg/kg, male Wistar rats
Property: tz; scope: individual compounds
Give the value, in units of h, as a plain number.

{"compound": "Oc1cccc(-c2ccc3c(-c4ccccc4)c(O)ccc3c2)c1 [Compound 56, 6-(3-Hydroxyphenyl)-1-phenyl-2-naphthol]", "assay-metric": "tz", "result": 24.0}

Here is the next item to consider.
The value of tz measured for the compound "CS(=O)(=O)Nc1cccc(-c2c(O)ccc3cc(-c4cccc(O)c4)ccc23)c1" turned out to be 10.0

###

- method-notes: In vivo pharmacokinetics (rat), cassette dosing method
- experimental-setup: rat, plasma, po; cassette dosing perorally 10 mg/kg, male Wistar rats; extrapolated to ∞
assay-metric: AUC(0-inf) (ng·h/mL)
Form entry: value (ng·h/mL) — number only.

// solved cases for AUC(0-inf) follow
{"compound": "Oc1cccc(-c2ccc3c(-c4ccccc4)c(O)ccc3c2)c1 [Compound 56, 6-(3-Hydroxyphenyl)-1-phenyl-2-naphthol]", "unit-spec": "ng·h/mL", "result": 12700}
{"compound": "CS(=O)(=O)Nc1cccc(-c2c(O)ccc3cc(-c4cccc(O)c4)ccc23)c1", "unit-spec": "ng·h/mL", "result": 1330}
{"compound": "Oc1cccc(-c2ccc3c(-c4cccc(O)c4)c(O)ccc3c2)c1 [Compound 57, 1,6-Bis(3-hydroxyphenyl)naphthalene-2-ol]", "unit-spec": "ng·h/mL", "result": 10700}

// "Nc1cccc(-c2c(O)ccc3cc(-c4cccc(O)c4)ccc23)c1" : AUC(0-inf) value = 540

Oc1cccc(-c2ccc3cc(O)ccc3c2)c1 [Compound 19, 6-(3-Hydroxyphenyl)-2-naphthol] has a reported AUC(0-inf) of 30700
